Measurement notes: Pharmacokinetic study in dogs
Type: in vivo, male Beagle dogs
Measurement parameters: male, Beagle, plasma; dog, IV 0.2 to 0.5 mg/kg; read-out: Vd,ss (L/kg) Dog
Procedure: Test compounds were administered to male Sprague-Dawley rats and male Beagle dogs by oral (PO) and intravenous (TV) administration. […] The plasma concentrations of test compounds were quantified by LC-MS/MS methods. The relevant pharmacokinetic parameters (Table D) were calculated via non-compartmental analysis using WinNonlin (Phoenix™, version 8.3).
As shown below, each of these molecules has a reported Vd value.

>  <Smiles str>
Cc1ncnc(C)c1-c1ccc(C(=O)N2CC[C@H](C(=O)Nc3cc(F)c(F)c(F)c3)C2)[nH]1

>  <Vd>
1.64 L/kg

$$$$
>  <Smiles str>
Cc1ncnc(C)c1-c1ccc(C(=O)N2CC[C@H](C(=O)Nc3ccc(F)c(Cl)c3)[C@@H]2C)[nH]1

>  <Vd>
1.67 L/kg

$$$$
>  <Smiles str>
Cc1cc(NC(=O)[C@H]2CCN(C(=O)c3ccc(-c4c(C)ncnc4C)[nH]3)[C@H]2C)ccc1F

>  <Vd>
1.3 L/kg

$$$$
